test-target: TEM-1 (Escherichia coli)
Sequence (P62593 24-286 limits assumed): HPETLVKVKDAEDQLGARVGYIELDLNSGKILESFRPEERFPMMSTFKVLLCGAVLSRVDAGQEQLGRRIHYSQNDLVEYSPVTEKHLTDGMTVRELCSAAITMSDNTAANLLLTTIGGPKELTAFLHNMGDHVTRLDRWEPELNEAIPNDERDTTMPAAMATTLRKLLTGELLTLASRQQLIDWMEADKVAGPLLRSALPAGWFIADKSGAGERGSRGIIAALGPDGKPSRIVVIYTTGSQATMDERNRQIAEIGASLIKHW
experiment-description: β-lactamase inhibitory activity, determination of IC50 (nitrocefin hydrolysis)
experimental-setup: class (A), 30 min pre-incubation
pIC50: −log10 of the molar value. Where a name gives a salt, the structure may show the parent alone.
Use 8 as the dividing line for pIC50, with the line itself on the MET side and lower values as NOT MET.

compound	test-target	category
NC[C@@H]1C=C(c2cnco2)[C@@H]2CN1C(=O)N2OS(=O)(=O)O (relative stereo) [Example 1, sulfate]	TEM-1 (Escherichia coli)	MET
NC[C@@H]1C(c2nccs2)=C[C@@H]2CN1C(=O)N2OS(=O)(=O)[O-].O=C(O)C(F)(F)F.[Na+] [Example 2, sulfate]	TEM-1 (Escherichia coli)	MET
NC[C@@H]1C=C(c2cnco2)[C@@H]2CN1C(=O)N2OC(F)(F)C(=O)O (relative stereo)	TEM-1 (Escherichia coli)	MET
Cn1cc(C2=C[C@@H](CN)N3C[C@@H]2N(OS(=O)(=O)O)C3=O)cnc1=O (relative stereo)	TEM-1 (Escherichia coli)	NOT MET
NC[C@@H]1C(c2ncco2)=C[C@@H]2CN1C(=O)N2OS(=O)(=O)[O-].O=C(O)C(F)(F)F.[Na+] [Example 5, sulfate]	TEM-1 (Escherichia coli)	NOT MET

* * *

test-target: OXA-15 (Pseudomonas aeruginosa)
experiment-description: β-lactamase inhibitory activity, determination of IC50 (nitrocefin hydrolysis)
readout-type: IC50 (nM)

molecule	obs-value
NC[C@H]1C=C(c2cnco2)[C@@H]2CN1C(=O)N2OS(=O)(=O)[O-].O=C(O)C(F)(F)F.[Na+] (relative stereo) [Example 1, sulfate]	0.65
Cn1cc(C2=C[C@@H](CN)N3C[C@@H]2N(OS(=O)(=O)O)C3=O)cnc1=O (relative stereo) [Example 6]	68
NC[C@@H]1C=C(c2cnco2)[C@@H]2CN1C(=O)N2OC(F)(F)C(=O)O (relative stereo) [Example 3]	1.6
NC[C@@H]1C(c2ncco2)=C[C@@H]2CN1C(=O)N2OS(=O)(=O)[O-].O=C(O)C(F)(F)F.[Na+] [Example 5, sulfate]	8
NC[C@@H]1C(c2nccs2)=C[C@@H]2CN1C(=O)N2OS(=O)(=O)[O-].O=C(O)C(F)(F)F.[Na+] [Example 2, sulfate]	0.84

* * *

test-target: OXA-1 (Escherichia coli)
experiment-description: β-lactamase inhibitory activity, determination of IC50 (nitrocefin hydrolysis)
pIC50: −log10 of the molar value.

compound	pIC50
Cn1cc(C2=C[C@@H](CN)N3C[C@@H]2N(OS(=O)(=O)O)C3=O)cnc1=O (relative stereo) [Example 6]	5.92
NC[C@@H]1C=C(c2cnco2)[C@@H]2CN1C(=O)N2OC(F)(F)C(=O)O (relative stereo) [Example 3]	7.77
NC[C@@H]1C(c2nccs2)=C[C@@H]2CN1C(=O)N2OS(=O)(=O)[O-].O=C(O)C(F)(F)F.[Na+] [Example 2, sulfate]	8.21
NC[C@H]1C=C(c2cnco2)[C@@H]2CN1C(=O)N2OS(=O)(=O)[O-].O=C(O)C(F)(F)F.[Na+] (relative stereo) [Example 1, sulfate]	7.10
NC[C@@H]1C(c2ncco2)=C[C@@H]2CN1C(=O)N2OS(=O)(=O)[O-].O=C(O)C(F)(F)F.[Na+] [Example 5, sulfate]	6.43

* * *

test-target: OXA-11 (Pseudomonas aeruginosa, UniProt Q06778)
experiment-description: β-lactamase inhibitory activity, determination of IC50 (nitrocefin hydrolysis)

compound	unit-symbol	IC50
Cn1cc(C2=C[C@@H](CN)N3C[C@@H]2N(OS(=O)(=O)O)C3=O)cnc1=O (relative stereo) [Example 6]	nM	1600
NC[C@@H]1C=C(c2cnco2)[C@@H]2CN1C(=O)N2OC(F)(F)C(=O)O (relative stereo) [Example 3]	nM	48
NC[C@@H]1C(c2nccs2)=C[C@@H]2CN1C(=O)N2OS(=O)(=O)[O-].O=C(O)C(F)(F)F.[Na+] [Example 2, sulfate]	nM	6.8
NC[C@@H]1C(c2ncco2)=C[C@@H]2CN1C(=O)N2OS(=O)(=O)[O-].O=C(O)C(F)(F)F.[Na+] [Example 5, sulfate]	nM	430
NC[C@H]1C=C(c2cnco2)[C@@H]2CN1C(=O)N2OS(=O)(=O)[O-].O=C(O)C(F)(F)F.[Na+] (relative stereo) [Example 1, sulfate]	nM	4.1
